Biological target: Ribonucleotide reductase (Homo sapiens, UniProt P23921+Q7LG56)
Sequence (P23921 whole entry, looked up): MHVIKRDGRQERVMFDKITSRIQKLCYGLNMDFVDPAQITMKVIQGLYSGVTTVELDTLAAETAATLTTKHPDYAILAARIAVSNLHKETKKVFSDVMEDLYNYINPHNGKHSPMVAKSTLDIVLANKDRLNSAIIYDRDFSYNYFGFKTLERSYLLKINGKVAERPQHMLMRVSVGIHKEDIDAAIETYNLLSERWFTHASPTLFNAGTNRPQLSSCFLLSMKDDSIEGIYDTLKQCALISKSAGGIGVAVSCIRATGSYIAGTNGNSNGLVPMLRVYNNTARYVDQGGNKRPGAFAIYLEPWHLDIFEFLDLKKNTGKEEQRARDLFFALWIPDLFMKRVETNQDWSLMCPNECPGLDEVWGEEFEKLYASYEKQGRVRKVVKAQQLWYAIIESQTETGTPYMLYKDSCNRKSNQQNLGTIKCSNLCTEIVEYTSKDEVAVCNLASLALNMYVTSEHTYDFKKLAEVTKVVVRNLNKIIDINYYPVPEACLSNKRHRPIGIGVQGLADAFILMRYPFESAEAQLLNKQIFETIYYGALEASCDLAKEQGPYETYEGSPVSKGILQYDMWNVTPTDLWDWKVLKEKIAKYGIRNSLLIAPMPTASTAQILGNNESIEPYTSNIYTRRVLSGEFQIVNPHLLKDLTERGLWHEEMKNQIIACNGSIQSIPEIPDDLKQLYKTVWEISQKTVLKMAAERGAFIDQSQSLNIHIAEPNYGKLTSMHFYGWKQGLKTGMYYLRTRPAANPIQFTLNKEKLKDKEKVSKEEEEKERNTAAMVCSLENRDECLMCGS
Sequence (Q7LG56 whole entry, looked up): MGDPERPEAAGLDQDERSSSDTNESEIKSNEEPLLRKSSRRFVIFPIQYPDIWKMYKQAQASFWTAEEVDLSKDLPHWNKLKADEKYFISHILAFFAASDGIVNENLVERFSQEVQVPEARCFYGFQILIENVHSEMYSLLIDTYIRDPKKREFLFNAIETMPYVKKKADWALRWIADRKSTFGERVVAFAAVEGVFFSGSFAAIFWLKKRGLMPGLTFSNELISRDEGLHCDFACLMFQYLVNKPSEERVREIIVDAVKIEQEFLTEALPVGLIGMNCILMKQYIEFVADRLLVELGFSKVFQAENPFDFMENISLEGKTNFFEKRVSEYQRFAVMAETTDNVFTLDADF
Experiment: Human RNR Inhibition Effect: The inhibitory activity against the ribonucleotide reduction reaction (hereinafter referred to as RNR reaction) of the test compound was determined by measuring the formation of deoxycytidine diphosphate (hereinafter referred to as dCDP) from cytidine diphosphate (hereinafter referred to as CDP) by the following method.Human M1 subunit and human M2 subunit (mutant …
result type: log10 of IC50 (log10 of the value in µM)
Friendly reminder: values = log10 of IC50, unit µM.

Fill in: log10 of IC50 of Cc1ccc(F)c([C@@H](C)[C@H](NS(=O)(=O)c2c(F)cc(F)c3c2OCCC3O)c2n[nH]c(=O)o2)c1C (stereo partly drawn) is ___
-0.64

Fill in: log10 of IC50 of COc1cc(Cl)ccc1S(=O)(=O)N[C@H](c1n[nH]c(=O)o1)[C@H](C)c1c(F)ccc(-c2ccc(N3CCOCC3)nc2)c1C is ___
-0.72

Fill in: log10 of IC50 of Cc1ccc(F)c([C@@H](C)[C@H](NS(=O)(=O)c2ccc(Cl)c3c2OCCN3)c2n[nH]c(=O)o2)c1C is ___
-1.00

Fill in: log10 of IC50 of COc1cc(Cl)ccc1S(=O)(=O)N[C@H](c1n[nH]c(=O)o1)[C@H](C)c1c(F)ccc(-c2cnc3c(c2)OCCN3C)c1C is ___
-0.66

Fill in: log10 of IC50 of Cc1ccc(F)c([C@@H](C)[C@H](NS(=O)(=O)c2cc3c(cc2C(N)=O)OCCO3)c2n[nH]c(=O)o2)c1C is ___
-1.05

Fill in: log10 of IC50 of Cc1ccc(F)c([C@@H](C)[C@H](NS(=O)(=O)c2cccc3c2OCCC3(O)C(F)(F)F)c2n[nH]c(=O)o2)c1C (stereo partly drawn) is ___
-0.92

Fill in: log10 of IC50 of Cc1ccc(F)c([C@@H](C)[C@@H](c2n[nH]c(=O)o2)N(C)S(=O)(=O)c2ccc(Cl)cc2C(N)=O)c1C is ___
-1.10

Fill in: log10 of IC50 of Cc1ccc(F)c([C@@H](C)[C@H](NS(=O)(=O)c2cccc3c2CCNC3)c2n[nH]c(=O)o2)c1C is ___
-0.12

Fill in: log10 of IC50 of Cc1ccc(F)c([C@@H](C)[C@H](NS(=O)(=O)c2ccc(Cl)cc2OC(F)F)c2n[nH]c(=O)o2)c1C is ___
-0.59

Fill in: log10 of IC50 of Cc1c(Br)ccc(F)c1[C@@H](C)[C@H](NS(=O)(=O)c1ccc(Cl)c2c1OCCC2(C)N)c1n[nH]c(=O)o1 (stereo partly drawn) is ___
-1.22

Fill in: log10 of IC50 of C[C@H](c1cccc2c1CCCC2)[C@H](NS(=O)(=O)c1ccc(N)cc1)c1n[nH]c(=O)o1 is ___
-0.07

Fill in: log10 of IC50 of Cc1ccc(F)c([C@@H](C)[C@H](NS(=O)(=O)c2ncc(Br)cc2C(N)=O)c2n[nH]c(=O)o2)c1C is ___
-1.70

Fill in: log10 of IC50 of C[C@H](c1cccc2c1-c1ccccc1C2)[C@H](NS(=O)(=O)c1ccc(Br)cn1)c1n[nH]c(=O)o1 is ___
-0.07

Fill in: log10 of IC50 of Cc1ccc(F)c([C@@H](C)[C@H](NS(=O)(=O)c2cc(-c3nnco3)ccc2C(N)=O)c2n[nH]c(=O)o2)c1C is ___
-1.05

Fill in: log10 of IC50 of Cc1ccc(F)c([C@@H](C)[C@H](NS(=O)(=O)c2cc([N+](=O)[O-])c(Cl)cc2C(N)=O)c2n[nH]c(=O)o2)c1C is ___
-0.89

Fill in: log10 of IC50 of COc1cc(Cl)ccc1S(=O)(=O)N[C@H](c1n[nH]c(=O)o1)[C@H](C)c1c(F)ccc(-c2cncc(C(=O)N3CCOCC3)c2)c1C is ___
-0.38

Fill in: log10 of IC50 of Cc1ccc(F)c([C@@H](C)[C@H](NS(=O)(=O)c2ccc(Cl)c(C(=O)N3CCCC3)n2)c2n[nH]c(=O)o2)c1C is ___
-1.22

Fill in: log10 of IC50 of COc1cc(Cl)ccc1S(=O)(=O)N[C@H](c1n[nH]c(=O)o1)[C@H](C)c1c(F)ccc(-c2cnn(C)c2)c1C is ___
-1.05
